Target: Syk (Homo sapiens (Human))
experimentalEndpoint: IC50 (nM)

1) COc1cc(Nc2cc(Oc3ccc(NC(=O)Nc4cc(C(C)(C)C)cc(NS(C)(=O)=O)c4OC)c4ccccc34)ccn2)cc(OCCOCCOCC(=O)O)c1 ... 12

* * *

Target: p38 MAPKα (Homo sapiens (Human))
Sequence (Q16539 whole entry): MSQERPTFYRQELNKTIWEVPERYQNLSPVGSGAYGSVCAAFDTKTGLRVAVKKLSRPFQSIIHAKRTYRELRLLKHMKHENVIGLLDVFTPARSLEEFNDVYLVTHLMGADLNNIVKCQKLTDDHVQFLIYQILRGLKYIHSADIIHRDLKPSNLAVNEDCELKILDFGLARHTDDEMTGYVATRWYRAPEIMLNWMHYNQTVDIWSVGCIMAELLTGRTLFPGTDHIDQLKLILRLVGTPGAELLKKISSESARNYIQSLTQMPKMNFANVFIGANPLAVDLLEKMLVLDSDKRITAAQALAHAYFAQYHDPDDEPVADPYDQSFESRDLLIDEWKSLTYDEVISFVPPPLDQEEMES
pIC50: −log10 of the molar value.
List of pIC50 values.
experimentalEndpoint: pIC50

1. COc1cc(Nc2cc(Oc3ccc(NC(=O)Nc4cc(C(C)(C)C)cc(NS(C)(=O)=O)c4OC)c4ccccc34)ccn2)cc(OCCOCCOCC(=O)O)c1 [Example 3] ... 7.64
2. COc1cc(Nc2nccc(Oc3ccc(NC(=O)Nc4cc(C(C)(C)C)cc(NS(C)(=O)=O)c4OC)c4ccccc34)n2)cc(OCCOCCOCC(=O)O)c1 [Example 2] ... 7.64

* * *

Tested on: Jurkat cells
Assay: Cell cytotoxicity assay, Jurkat cell viability (assay (r))
Type: cell-based, human
Conditions: 5 μg/mL, 24 hours
experimentalEndpoint: % Viability at 5 μg/mL

1) COc1cc(Nc2cc(Oc3ccc(NC(=O)Nc4cc(C(C)(C)C)cc(NS(C)(=O)=O)c4OC)c4ccccc34)ccn2)cc(OCCOCCOCC(=O)O)c1 ... 99%
2) COCC(=O)Nc1cc(Oc2ccc(NC(=O)Nc3cc(C(C)(C)C)nn3-c3ccc(C)cc3)c3ccccc23)ccn1 [Reference compound, reference compound] ... 26%
3) COc1cc(Nc2nccc(Oc3ccc(NC(=O)Nc4cc(C(C)(C)C)cc(NS(C)(=O)=O)c4OC)c4ccccc34)n2)cc(OCCOCCOCCC(=O)O)c1 [Reference Compound A] ... 93%
4) COc1cc(Nc2nccc(Oc3ccc(NC(=O)Nc4cc(C(C)(C)C)cc(NS(C)(=O)=O)c4OC)c4ccccc34)n2)cc(OCCOCCOCC(=O)O)c1 ... 99%

* * *

Experiment: Solubility in fasted-state simulated colonic fluid (FaSSCoF) at pH 6.5
Type: physicochemical
Conditions: fasted-state simulated colonic fluid (FaSSCoF), 25 °C, pH 6.5, fassgf or other biorelevant, thermodynamic from solid, pH 6.5, 25° C., Run 3, read-out: pH 6.5 FaSSCoF Solubility Run 3
Structures can show the parent of a compound that is named as a salt.
experimentalEndpoint: solubility thermodynamic at 24 h

1) COc1cc(Nc2nccc(Oc3ccc(NC(=O)Nc4cc(C(C)(C)C)cc(NS(C)(=O)=O)c4OC)c4ccccc34)n2)cc(OCCOCCOCCC(=O)O)c1 [Reference Compound A (sodium salt), reference compound] ... 30 µg/mL

* * *

Test system: Jurkat cells
Test: Cell cytotoxicity assay, Jurkat cell viability (assay (r))
Assay type: cell-based, human
Conditions: 20 μg/mL, 24 hours
List of % Viability at 20 μg/mL values.
experimentalEndpoint: % Viability at 20 μg/mL (%)

1. COCC(=O)Nc1cc(Oc2ccc(NC(=O)Nc3cc(C(C)(C)C)nn3-c3ccc(C)cc3)c3ccccc23)ccn1 [Reference compound, reference compound] ... 24
2. COc1cc(Nc2cc(Oc3ccc(NC(=O)Nc4cc(C(C)(C)C)cc(NS(C)(=O)=O)c4OC)c4ccccc34)ccn2)cc(OCCOCCOCC(=O)O)c1 ... 96
3. COc1cc(Nc2nccc(Oc3ccc(NC(=O)Nc4cc(C(C)(C)C)cc(NS(C)(=O)=O)c4OC)c4ccccc34)n2)cc(OCCOCCOCC(=O)O)c1 ... 97
4. COc1cc(Nc2nccc(Oc3ccc(NC(=O)Nc4cc(C(C)(C)C)cc(NS(C)(=O)=O)c4OC)c4ccccc34)n2)cc(OCCOCCOCCC(=O)O)c1 [Reference Compound A] ... 48
